Reference for the values: patent US20200181101A1

# Study system: Lsp from E. coli (Escherichia coli)
# Construct: The full-length Lsp clone from E. coli (residues 1-164); His6 with enterokinase cleavage site (pET19b) (N); made in house; host or cells: E. coli Lemo21 (DE3), pET19b vector
# Sequence (P00804 whole entry, the tested form may be a part): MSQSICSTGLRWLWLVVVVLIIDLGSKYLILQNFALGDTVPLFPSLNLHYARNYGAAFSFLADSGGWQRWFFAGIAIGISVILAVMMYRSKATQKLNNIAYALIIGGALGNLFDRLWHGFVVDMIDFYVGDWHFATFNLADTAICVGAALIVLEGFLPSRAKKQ
# Method summary: Lsp FRET activity assay, IC50 determination
# Assay type: biochemical
# Condition description: FRET-based assay, [Lsp] = 400 nM, mean (± SD); read-out: IC50
Reported values of pIC50 for individual entries
Please report pIC50 as the negative decimal logarithm of the molar concentration, giving only the number.

1) CCC(CC)c1nnc(NC(=O)c2cc(OC)c(OC)cc2[N+](=O)[O-])s1 5.38
2) CCCCc1nnc(NC(=O)c2cc(OC)c(OC)cc2[N+](=O)[O-])s1 4.54
3) CCOc1cc([N+](=O)[O-])c(C(=O)Nc2nnc(C(CC)CC)s2)cc1OC 5.92

IN: pIC50 for CCC(CC)c1nnc(NC(=O)c2ccc(OC)c(OC)c2)s1 ?
OUT: 3.96
